- Tested on: Summer wheat
- procedure.text: Example C: Herbicidal post-emergence action, use of safeners (crop plant damage)
- Format: in vivo
- run.parameters: 10 days after application; 12.5 g of a.i./ha; no safener
readout.kind: Summer wheat observed (%)
Answers are plain numbers, in %.

Here are 3 molecules together with their reported answers.
molecule | value.units | Summer wheat observed (%)
CCOC(=O)OC1=C(c2c(C3CC3)cc(C)cc2C2CC2)C(=O)NC1(C)C [Example I-1-c-13] | % | 20
CCOC1CCCC2(CC1)NC(=O)C(c1c(C)cc(C)cc1C1CC1)=C2O (stereo not shown) [Example I-1-a-9] | % | 60
CCOC(=O)OC1=C(c2c(C)cc(C)cc2C2CC2)C(=O)NC12CCC(OC)CC2 (single isomer, unassigned) [Example I-1-c-7] | % | 20

Now let's try a different one.
GET /value?item= CCCCOC1CCCC2(C1)NC(=O)C(c1c(Cl)cc(C)cc1C1CC1)=C2O (stereo not shown) [Example I-1-a-12] &field=Summer wheat observed (%) returns 50

----------
Record form. Attribute: Summer wheat observed (%). Fill in for each entry.
- Test system: Summer wheat
- procedure.text: Example C: Herbicidal post-emergence action, use of safeners (crop plant damage)
- Format: in vivo
- run.parameters: 28 days after application; 50 g of a.i./ha; no safener
Answers are plain numbers, in %.

Sample answers from the record:
compound | Summer wheat observed (%)
CCOC(=O)OC1=C(c2c(C)cc(C)cc2C2CC2)C(=O)NC12CCC(OC)CC2 (single isomer, unassigned) | 80
COC1CCC2(CC1)NC(=O)C(c1c(C)cc(C)cc1C1CC1)=C2O (stereo not shown) | 70
CCOC1CCCC2(C1)NC(=O)C(c1c(Cl)cc(C)cc1C1CC1)=C2O (stereo not shown) | 75

// next item, Summer wheat observed (%) requested
Reported Summer wheat observed (%) of CCCCOC1CCCC2(C1)NC(=O)C(c1c(Cl)cc(C)cc1C1CC1)=C2O (stereo not shown) : 65

----------
Kindly supply the reported Summer wheat observed (%) values for the records listed here.
- System: Summer wheat
- procedure.text: Example C: Herbicidal post-emergence action, use of safeners (crop plant damage)
- Type: in vivo
- run.parameters: 28 days after application; 25 g of a.i./ha; no safener
One number for each entry, in %.

The examples below pair each entry with its known result.
compound | result.value
CCOC1CCCC2(CC1)NC(=O)C(c1c(C)cc(C)cc1C1CC1)=C2O (centres unmarked) | 50
COC1CCC2(CC1)NC(=O)C(c1c(C)cc(C)cc1C1CC1)=C2O (centres unmarked) | 60
CCOC(=O)OC1=C(c2c(C)cc(C)cc2C2CC2)C(=O)NC12CCC(OC)CC2 (single isomer, unassigned) | 20
CCCCOC1CCCC2(C1)NC(=O)C(c1c(Cl)cc(C)cc1C1CC1)=C2O (centres unmarked) | 65

Summer wheat observed (%) in this record for CCOC1CCCC2(C1)NC(=O)C(c1c(Cl)cc(C)cc1C1CC1)=C2O (centres unmarked) : 50
